subject_of_test: T1, Recombinant Mouse 5′-Nucleotidase/CD73 Protein, CF (R&D Systems Cat: 4488-EN) (mouse, UniProt Q61503 29-549, limits assumed)
T1 construct: Bought protein; also called Mouse CD73-His; recombinant mouse CD73; not shown: His tag
T1 sequence (looked up): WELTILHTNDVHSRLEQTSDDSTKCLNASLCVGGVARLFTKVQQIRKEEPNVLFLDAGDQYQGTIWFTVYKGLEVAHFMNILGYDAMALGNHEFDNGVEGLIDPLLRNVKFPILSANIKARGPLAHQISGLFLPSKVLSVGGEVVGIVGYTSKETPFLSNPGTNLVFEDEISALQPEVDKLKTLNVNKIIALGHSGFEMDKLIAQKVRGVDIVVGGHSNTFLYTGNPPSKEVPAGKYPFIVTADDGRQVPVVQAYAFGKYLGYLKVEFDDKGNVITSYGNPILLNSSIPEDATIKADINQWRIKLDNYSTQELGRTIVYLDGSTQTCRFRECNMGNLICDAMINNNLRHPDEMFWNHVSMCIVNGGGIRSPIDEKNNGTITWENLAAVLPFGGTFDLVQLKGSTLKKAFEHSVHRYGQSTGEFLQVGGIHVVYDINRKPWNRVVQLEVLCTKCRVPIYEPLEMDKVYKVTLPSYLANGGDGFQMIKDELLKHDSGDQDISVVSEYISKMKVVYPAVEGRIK
method_notes: restated binding profile (Octet)
metric_name: binding result

>>> measurement("379 (antibody, V domains shown, also called progeny antibody 379; Lineage 3 child) VH: EVQLLESGGGLVQPGGSLRLSCAASGFTFSRYAMSWVRQAPGKGLEWVSSISGTGGSTYYADSVKGRFTISRDNSKNTLYLQMNSLRAEDTAVYYCARGGLYGSGSYLSDFDLWGRGTLVTVSS VL: EIVLTQSPATLSVSPGERATLSCRASQSVGSNLAWYQQKPGQAPRLLIYGASTRATGIPARFSGSGSGTEFTLTISSLQSEDFAVYYCQQHNAFPYTFGGGTKVEIK")
"no binding"
>>> measurement("377 (antibody, V domains shown, also called progeny antibody 377; Lineage 3 child) VH: EVQLLESGGGLVQPGGSLRLSCAASGFTFKSYAMSWVRQAPGKGLEWVSAISGSGSYTYYADSVKGRFTISRDNSKNTLYLQMNSLRAEDTAVYYCARGGLYGSGSYLSDFDLWGRGTLVTVSS VL: EIVLTQSPATLSVSPGERATLSCRASQSVGSNLAWYQQKPGQAPRLLIYGASTRATGIPARFSGSGSGTEFTLTISSLQSEDFAVYYCQQHNAFPYTFGGGTKVEIK")
"no binding"
>>> measurement("376 (antibody, V domains shown, also called progeny antibody 376; Lineage 3 child) VH: EVQLLESGGGLVQPGGSLRLSCAASGFTFRSYAMSWVRQAPGKGLEWVSAITGSGGLTYYADSVKGRFTISRDNSKNTLYLQMNSLRAEDTAVYYCARGGLYGSGSYLSDFDLWGRGTLVTVSS VL: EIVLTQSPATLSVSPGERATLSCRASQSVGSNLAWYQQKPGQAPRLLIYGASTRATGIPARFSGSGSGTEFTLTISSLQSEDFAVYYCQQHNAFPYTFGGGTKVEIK")
"no binding"

Where do the numbers come from? From patent US20240141060A1.
